Recorded measurements of kon, one per entry
- target-entity: T1, human PACAP38 (human, not fully specified; C-terminal lysine is amidated; N-terminal or C-terminal biotin in the HTRF and PC-12 cell binding assays)
- T1 construct: synthetic peptide, bought; also called huPACAP (1-38)
- T1 peptide: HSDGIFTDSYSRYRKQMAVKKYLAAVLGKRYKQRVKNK
- measurement-notes: SPR, Ab immobilised
Please give a number only; it is taken to be in M⁻¹ s⁻¹.

Before answering, review these 2 worked examples.
- binder: "anti-PACAP antibody Ab16 (antibody, human IgG1, kappa, N297A, V domains shown, full-length rabbit/human chimeric antibody) VH: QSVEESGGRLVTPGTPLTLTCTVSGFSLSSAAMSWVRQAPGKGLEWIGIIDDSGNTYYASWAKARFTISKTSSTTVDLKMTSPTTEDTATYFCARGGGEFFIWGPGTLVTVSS VL: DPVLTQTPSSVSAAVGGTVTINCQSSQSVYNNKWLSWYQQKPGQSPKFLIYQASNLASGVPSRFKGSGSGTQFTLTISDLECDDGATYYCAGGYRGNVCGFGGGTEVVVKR"
  kon (M⁻¹ s⁻¹): 910000
- binder: "anti-PACAP antibody Ab1 (antibody, human IgG1, kappa, N297A, V domains shown, full-length rabbit/human chimeric antibody) VH: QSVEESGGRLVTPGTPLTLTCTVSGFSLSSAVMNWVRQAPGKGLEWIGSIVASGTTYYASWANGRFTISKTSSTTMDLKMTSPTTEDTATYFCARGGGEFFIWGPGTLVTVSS VL: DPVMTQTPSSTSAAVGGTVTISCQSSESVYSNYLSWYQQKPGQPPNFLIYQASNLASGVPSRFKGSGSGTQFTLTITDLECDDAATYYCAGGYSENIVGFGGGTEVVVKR"
  kon (M⁻¹ s⁻¹): 370000

Query binder follows.
Asked: What measured kon goes with anti-PACAP antibody Ab7 (antibody, human IgG1, kappa, N297A, V domains shown, full-length rabbit/human chimeric antibody) VH: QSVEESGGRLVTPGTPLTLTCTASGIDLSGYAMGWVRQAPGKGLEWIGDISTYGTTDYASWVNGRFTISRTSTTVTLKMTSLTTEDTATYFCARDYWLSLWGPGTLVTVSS VL: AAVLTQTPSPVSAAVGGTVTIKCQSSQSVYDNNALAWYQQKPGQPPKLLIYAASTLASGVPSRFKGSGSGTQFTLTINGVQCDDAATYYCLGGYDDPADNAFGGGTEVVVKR ?
Given back: 180000
